Every entry's value here was drawn from patent US9957325B2.

Reported koff values are given for each entry in this list.
Target: Recombinant human EGFR (Homo sapiens, UniProt P00533)
Sequence (P00533 25-1210): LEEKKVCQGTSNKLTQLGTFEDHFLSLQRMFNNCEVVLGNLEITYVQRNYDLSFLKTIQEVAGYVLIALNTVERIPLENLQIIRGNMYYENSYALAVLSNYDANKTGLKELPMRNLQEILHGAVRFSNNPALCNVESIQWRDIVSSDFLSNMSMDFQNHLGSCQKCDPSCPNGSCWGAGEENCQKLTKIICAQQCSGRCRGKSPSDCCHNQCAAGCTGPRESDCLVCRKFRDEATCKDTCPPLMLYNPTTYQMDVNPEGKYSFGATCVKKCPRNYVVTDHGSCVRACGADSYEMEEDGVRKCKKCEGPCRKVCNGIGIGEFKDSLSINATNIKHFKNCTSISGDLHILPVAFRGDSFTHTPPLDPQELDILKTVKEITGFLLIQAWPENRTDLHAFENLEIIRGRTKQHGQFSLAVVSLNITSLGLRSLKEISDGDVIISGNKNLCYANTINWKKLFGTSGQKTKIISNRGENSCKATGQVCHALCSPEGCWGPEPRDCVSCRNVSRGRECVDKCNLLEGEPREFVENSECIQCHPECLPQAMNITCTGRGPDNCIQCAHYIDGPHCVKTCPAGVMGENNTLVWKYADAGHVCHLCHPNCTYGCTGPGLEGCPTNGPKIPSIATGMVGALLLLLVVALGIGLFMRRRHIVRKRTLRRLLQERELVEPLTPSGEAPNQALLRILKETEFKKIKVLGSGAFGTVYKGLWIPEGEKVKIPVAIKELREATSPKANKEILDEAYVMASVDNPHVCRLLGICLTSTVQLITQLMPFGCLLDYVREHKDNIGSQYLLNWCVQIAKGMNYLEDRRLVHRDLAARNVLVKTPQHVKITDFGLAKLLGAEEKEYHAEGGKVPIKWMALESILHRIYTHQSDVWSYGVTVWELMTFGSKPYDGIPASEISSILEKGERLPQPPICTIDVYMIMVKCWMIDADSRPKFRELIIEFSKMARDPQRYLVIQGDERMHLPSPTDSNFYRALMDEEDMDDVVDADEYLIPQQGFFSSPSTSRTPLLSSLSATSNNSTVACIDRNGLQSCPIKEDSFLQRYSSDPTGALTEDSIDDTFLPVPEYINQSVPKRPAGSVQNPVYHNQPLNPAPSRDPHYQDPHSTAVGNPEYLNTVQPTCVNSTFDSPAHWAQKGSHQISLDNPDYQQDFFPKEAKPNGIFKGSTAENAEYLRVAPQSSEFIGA
Assay: Surface plasmon resonance on immobilized EGFR
Conditions: SPR, EGFR as immobilized surface, 1:1 binding model, 25° C.
Description: Binding affinity constant of antibody mimics was calculated by surface plasmon resonance (Reichert SR7000DC). A carboxymethyl dextran gold sensor chip was activated by N-hydroxysuccinimide (NHS) and N-ethyl-N″-[3-([…])propyl] carbodiimide (EDC) at 25° C. using phosphate buffered saline pH 7.4 with 0.05% tween 20 as running buffer. […] Unreactive sites were blocked by flowing over the chip 1 M ethanolamine pH 8.5 at 10 μL/min for 8 minutes. […]
Where a SMILES comes first, the peptide text is derived from it.

- MOLECULE: "C[C@H](NC(=O)[C@H](CCC(=O)O)NC(=O)[C@H](Cc1ccc(O)cc1)NC(=O)[C@H](CC(=O)O)NC(=O)[C@H](Cc1ccc(O)cc1)NC(=O)[C@H](Cc1ccccc1)NC(=O)CNC(=O)[C@@H]1CCCN1C(=O)CNC(=O)[C@H](CC(N)=O)NC(=O)[C@H](CCC(=O)O)NC(=O)CNC(=O)[C@H](CO)NC(=O)[C@@H](N)Cc1c[nH]c2ccccc12)C(=O)O [Pep11] (H-WSGENGPGFYDYEA-OH; N-terminus and C-terminus assumed)"
  koff [s⁻¹]: 0.0252
- MOLECULE: "C[C@H](NC(=O)[C@H](CCC(=O)O)NC(=O)[C@H](Cc1ccc(O)cc1)NC(=O)[C@H](CC(=O)O)NC(=O)[C@H](Cc1ccccc1)NC(=O)[C@H](Cc1ccc(O)cc1)NC(=O)CNC(=O)[C@@H]1CCCN1C(=O)CNC(=O)[C@H](CC(N)=O)NC(=O)[C@H](CCC(=O)O)NC(=O)CNC(=O)[C@H](CO)NC(=O)[C@@H](N)Cc1c[nH]c2ccccc12)C(=O)O [Pep6] (H-WSGENGPGYFDYEA-OH; N-terminus and C-terminus assumed)"
  koff [s⁻¹]: 0.00581
- MOLECULE: "C[C@H](N)C(=O)N[C@@H](CCC(=O)O)C(=O)N[C@@H](Cc1ccc(O)cc1)C(=O)N[C@@H](CC(=O)O)C(=O)N[C@@H](Cc1ccccc1)C(=O)N[C@@H](Cc1ccc(O)cc1)C(=O)NCC(=O)N1CCC[C@H]1C(=O)NCC(=O)N[C@@H](CC(N)=O)C(=O)N[C@@H](CCC(=O)O)C(=O)NCC(=O)N[C@@H](CO)C(=O)N[C@@H](Cc1c[nH]c2ccccc12)C(=O)O [Pep24] (H-AEYDFYGPGNEGSW-OH; N-terminus and C-terminus assumed)"
  koff [s⁻¹]: 0.103
- MOLECULE: "C[C@H](NC(=O)[C@H](CCC(=O)O)NC(=O)[C@H](Cc1ccc(O)cc1)NC(=O)[C@H](CC(=O)O)NC(=O)[C@H](Cc1ccc(O)cc1)NC(=O)[C@H](Cc1ccccc1)NC(=O)[C@@H](NC(=O)CNC(=O)[C@@H]1CCCN1C(=O)CNC(=O)[C@H](CC(N)=O)NC(=O)[C@H](CCC(=O)O)NC(=O)CNC(=O)[C@H](CO)NC(=O)[C@@H](N)Cc1c[nH]c2ccccc12)[C@@H](C)O)C(=O)O [Pep22] (H-WSGENGPGTFYDYEA-OH; N-terminus and C-terminus assumed)"
  koff [s⁻¹]: 0.0259

----------
target: Recombinant human EGFR (Homo sapiens, UniProt P00533); experiment: Surface plasmon resonance on immobilized EGFR; conditions: SPR, EGFR as immobilized surface, 1:1 binding model, 25° C.
Where a SMILES comes first, the peptide text is derived from it.
METRIC NAME: kon

- COMPOUND: "C[C@H](NC(=O)[C@H](CCC(=O)O)NC(=O)[C@H](Cc1ccc(O)cc1)NC(=O)[C@H](CC(=O)O)NC(=O)[C@H](Cc1ccccc1)NC(=O)[C@H](Cc1ccc(O)cc1)NC(=O)CNC(=O)[C@@H]1CCCN1C(=O)CNC(=O)[C@H](CC(N)=O)NC(=O)[C@H](CCC(=O)O)NC(=O)CNC(=O)[C@H](CO)NC(=O)[C@@H](N)Cc1c[nH]c2ccccc12)C(=O)O [Pep6] (H-WSGENGPGYFDYEA-OH; N-terminus and C-terminus assumed)"
  METRIC NAME: "kon"
  ASSAY RESULT: "1210 M⁻¹ s⁻¹"
- COMPOUND: "C[C@H](N)C(=O)N[C@@H](CCC(=O)O)C(=O)N[C@@H](Cc1ccc(O)cc1)C(=O)N[C@@H](CC(=O)O)C(=O)N[C@@H](Cc1ccccc1)C(=O)N[C@@H](Cc1ccc(O)cc1)C(=O)NCC(=O)N1CCC[C@H]1C(=O)NCC(=O)N[C@@H](CC(N)=O)C(=O)N[C@@H](CCC(=O)O)C(=O)NCC(=O)N[C@@H](CO)C(=O)N[C@@H](Cc1c[nH]c2ccccc12)C(=O)O [Pep24] (H-AEYDFYGPGNEGSW-OH; N-terminus and C-terminus assumed)"
  METRIC NAME: "kon"
  ASSAY RESULT: "14300 M⁻¹ s⁻¹"
- COMPOUND: "C[C@H](NC(=O)[C@H](CCC(=O)O)NC(=O)[C@H](Cc1ccc(O)cc1)NC(=O)[C@H](CC(=O)O)NC(=O)[C@H](Cc1ccc(O)cc1)NC(=O)[C@H](Cc1ccccc1)NC(=O)[C@@H](NC(=O)CNC(=O)[C@@H]1CCCN1C(=O)CNC(=O)[C@H](CC(N)=O)NC(=O)[C@H](CCC(=O)O)NC(=O)CNC(=O)[C@H](CO)NC(=O)[C@@H](N)Cc1c[nH]c2ccccc12)[C@@H](C)O)C(=O)O [Pep22] (H-WSGENGPGTFYDYEA-OH; N-terminus and C-terminus assumed)"
  METRIC NAME: "kon"
  ASSAY RESULT: "43500 M⁻¹ s⁻¹"
- COMPOUND: "C[C@H](NC(=O)[C@H](CCC(=O)O)NC(=O)[C@H](Cc1ccc(O)cc1)NC(=O)[C@H](CC(=O)O)NC(=O)[C@H](Cc1ccc(O)cc1)NC(=O)[C@H](Cc1ccccc1)NC(=O)CNC(=O)[C@@H]1CCCN1C(=O)CNC(=O)[C@H](CC(N)=O)NC(=O)[C@H](CCC(=O)O)NC(=O)CNC(=O)[C@H](CO)NC(=O)[C@@H](N)Cc1c[nH]c2ccccc12)C(=O)O [Pep11] (H-WSGENGPGFYDYEA-OH; N-terminus and C-terminus assumed)"
  METRIC NAME: "kon"
  ASSAY RESULT: "100000 M⁻¹ s⁻¹"
